Where do these numbers come from? They come from ChEMBL document CHEMBL1146868.

Test system: K562
protocolNotes: Cytotoxicity against human K562 cell line after 96 hrs by MTT assay
Assay type: functional
settings: K562, 96 h
Answer each item with its documented GI50.

Recorded GI50 of COC(=O)c1cc(NC(=O)c2cc(NC(=O)c3cc(NC=O)cn3C)cn2C)cn1C , please. > 10000 nM

Requested read-out: GI50. Entry: COC(=O)c1cc(NC(=O)c2cc(NC(=O)c3cc(NC(=O)CCCOc4cc5c(cc4OC)C(=O)N4CCC[C@H]4C=N5)cn3C)cn2C)cn1C 41 nM

Could you share which GI50 value was measured for COC(=O)c1cc(NC(=O)c2cc(NC(=O)c3cc(NC(=O)CCCOc4cc5c(cc4OC)C(=O)N4CCC[C@H]4C(=O)N5)cn3C)cn2C)cn1C ? > 10000 nM

State the recorded GI50 for this entry: COC(=O)c1cc(NC(=O)c2cc(NC(=O)CCCOc3cc4c(cc3OC)C(=O)N3CCC[C@H]3C=N4)cn2C)cn1C 7.1 nM

Reported GI50, compound COC(=O)CCCOc1cc2c(cc1OC)C(=O)N1CCC[C@H]1C=N2 : ____ 526 nM

Entry under review: COC(=O)c1cc(NC(=O)c2cc(NC(=O)c3cc(NC(=O)c4cc(NC(=O)CCCOc5cc6c(cc5OC)C(=O)N5CCC[C@H]5C=N6)cn4C)cn3C)cn2C)cn1C . Reported GI50? 47 nM

Look up GI50: C=C1C[C@H]2C=Nc3cc(OCCCOc4cc5c(cc4OC)C(=O)N4CC(=C)C[C@H]4C=N5)c(OC)cc3C(=O)N2C1 [SJG-136] 3.8 nM

====

System: Panel NCI-60 (60 carcinoma cell lines)
protocolNotes: Cytotoxicity against human NCI60 cell line […]
Format: functional
Kindly supply the reported log10 of GI50 values for the records listed here.
Parameter value (number): base-10 log of GI50 in nM.

# get_value(readout='log10 of GI50', item= COC(=O)c1cc(NC(=O)c2cc(NC(=O)c3cc(NC(=O)CCOc4cc5c(cc4OC)C(=O)N4CCC[C@H]4C=N5)cn3C)cn2C)cn1C ) 1.67

Fill in the blank: the reported log10 of GI50 of COC(=O)CCCOc1cc2c(cc1OC)C(=O)N1CCC[C@H]1C=N2 is ____. 3.24

Look up log10 of GI50: COC(=O)c1cc(NC(=O)c2cc(NC(=O)c3cc(NC(=O)c4cc(NC(=O)CCCOc5cc6c(cc5OC)C(=O)N5CCC[C@H]5C=N6)cn4C)cn3C)cn2C)cn1C 0.85

GET /values?readout=log10 of GI50&item= COC(=O)c1cc(NC(=O)c2cc(NC(=O)c3cc(NC(=O)c4cc(NC(=O)c5cc(NC(=O)c6cc(NC(=O)CCCOc7cc8c(cc7OC)C(=O)N7CCC[C@H]7C=N8)cn6C)cn5C)cn4C)cn3C)cn2C)cn1C 0.90

I would be grateful if you could share the reported log10 of GI50 for COC(=O)c1cc(NC(=O)CCCOc2cc3c(cc2OC)C(=O)N2CCC[C@H]2C=N3)cn1C . 1.67

Which log10 of GI50 value belongs to COC(=O)c1cc(NC(=O)c2cc(NC(=O)c3cc(NC(=O)c4cc(NC(=O)c5cc(NC(=O)CCCOc6cc7c(cc6OC)C(=O)N6CCC[C@H]6C=N7)cn5C)cn4C)cn3C)cn2C)cn1C ? 0.95

Data request, read-out log10 of GI50, for COC(=O)c1cc(NC(=O)c2cc(NC(=O)c3cc(NC(=O)CCCOc4cc5c(cc4OC)C(=O)N4CCC[C@H]4C(=O)N5)cn3C)cn2C)cn1C 4.69

What measured log10 of GI50 goes with COC(=O)c1cc(NC(=O)c2cc(NC(=O)c3cc(NC=O)cn3C)cn2C)cn1C ? 4.22

What measured log10 of GI50 goes with COC(=O)c1cc(NC(=O)c2cc(NC(=O)CCCOc3cc4c(cc3OC)C(=O)N3CCC[C@H]3C=N4)cn2C)cn1C ? 1.04

Record request: log10 of GI50 value, item COC(=O)c1cc(NC(=O)c2cc(NC(=O)c3cc(NC(=O)CCCN(C)C)cn3C)cn2C)cn1C 4.86

Dear colleague, I am looking for the recorded log10 of GI50 of the following compound: C=C1C[C@H]2C=Nc3cc(OCCCOc4cc5c(cc4OC)C(=O)N4CC(=C)C[C@H]4C=N5)c(OC)cc3C(=O)N2C1 0.87

Look up log10 of GI50 for this compound: COC(=O)c1cc(NC(=O)c2cc(NC(=O)c3cc(NC(=O)CCCOc4cc5c(cc4OC)C(=O)N4CCC[C@H]4C=N5)cn3C)cn2C)cn1C 1.18

====

Tested on: K562
protocolNotes: Cytotoxicity against human K562 cell line after 96 hrs by MTT assay
Type: functional
settings: K562, 96 h
measuredEndpoint: GI50

GI50 lookup needed for COC(=O)c1cc(NC(=O)CCCOc2cc3c(cc2OC)C(=O)N2CCC[C@H]2C=N3)cn1C , thanks. 51 nM

Reported GI50 for COC(=O)c1cc(NC(=O)c2cc(NC(=O)c3cc(NC(=O)c4cc(NC(=O)c5cc(NC(=O)CCCOc6cc7c(cc6OC)C(=O)N6CCC[C@H]6C=N7)cn5C)cn4C)cn3C)cn2C)cn1C : what is it? 83 nM

What value of measured GI50 is listed for COC(=O)c1cc(NC(=O)c2cc(NC(=O)c3cc(NC(=O)CCCN(C)C)cn3C)cn2C)cn1C ? > 10000 nM

Can you look up the measured GI50 of COC(=O)c1cc(NC(=O)c2cc(NC(=O)c3cc(NC(=O)CCOc4cc5c(cc4OC)C(=O)N4CCC[C@H]4C=N5)cn3C)cn2C)cn1C for me? 346 nM

I am curious: what GI50 value has been reported for COC(=O)c1cc(NC(=O)c2cc(NC(=O)c3cc(NC(=O)c4cc(NC(=O)c5cc(NC(=O)c6cc(NC(=O)CCCOc7cc8c(cc7OC)C(=O)N7CCC[C@H]7C=N8)cn6C)cn5C)cn4C)cn3C)cn2C)cn1C ? 30 nM
